Tested on: Salmonella typhimurium TA100
Conditions: 400 ug/Well; with S9
Below: a set of entries, each annotated with reported Mean Revertant Colony Counts TA-100 SP9+.
The answer should be written as a number, with no unit following it.

Here is how some compounds turned out for Mean Revertant Colony Counts TA-100 SP9+.
moleculeSmiles: CC(C)(C)c1ccc(O)c(C(=O)Nc2ccc(C(=O)O)cc2Cl)c1
Mean Revertant Colony Counts TA-100 SP9+: 18.3

moleculeSmiles: CC(C)(C)c1ccc(O)c(C(=O)Nc2ccc(C(=O)O)cc2C(F)(F)F)c1
Mean Revertant Colony Counts TA-100 SP9+: 17.7

moleculeSmiles: CC(C)(C)c1ccc(O)c(C(=O)Nc2cc(C(=O)O)ccc2Cl)c1
Mean Revertant Colony Counts TA-100 SP9+: 21.3

Asked: Return reported Mean Revertant Colony Counts TA-100 SP9+; argument: CC(C)(C)c1cc(C(=O)Nc2ccc(C(=O)O)cc2Cl)c(O)c(C(C)(C)C)c1
Given back: 29.3

###

Entries and their measured Mean Revertant Colony Counts TA98 S9- follow.
Tested on: Salmonella typhimurium TA98
Assay: Ames assay, strain TA98
Conditions: 64 ug/Well; without S9
Respond using a number only.

Some compounds with recorded Mean Revertant Colony Counts TA98 S9-:
compound: CC(C)(C)c1ccc(O)c(C(=O)Nc2ccc(C(=O)O)cc2Cl)c1 [Compound 500200]
tgt: Salmonella typhimurium TA98
observable: Mean Revertant Colony Counts TA98 S9-
quantitativeResult: 7.7

compound: CC(C)(C)c1ccc(O)c(C(=O)Nc2ccc(C(=O)O)cc2C(F)(F)F)c1 [Compound 500873]
tgt: Salmonella typhimurium TA98
observable: Mean Revertant Colony Counts TA98 S9-
quantitativeResult: 11.7

compound: CC(C)(C)c1ccc(O)c(C(=O)Nc2cc(C(=O)O)ccc2Cl)c1 [Compound 600494]
tgt: Salmonella typhimurium TA98
observable: Mean Revertant Colony Counts TA98 S9-
quantitativeResult: 6.0

Turning to the following compound.
Asked: Form field: reported Mean Revertant Colony Counts TA98 S9- of CC(C)(C)c1cc(C(=O)Nc2ccc(C(=O)O)cc2Cl)c(O)c(C(C)(C)C)c1 [Compound 600453]
Given back: 6.0

###

Tested on: Salmonella typhimurium TA100
Details: 10 ug/Well; without S9
observable: Mean Revertant Colony Counts TA-100 S9-
API note: the answer field is a bare number with no unit suffix.

Use these answered entries as a reference point.
compound: CC(C)(C)c1ccc(O)c(C(=O)Nc2ccc(C(=O)O)cc2Cl)c1 [Compound 500200]
observable: Mean Revertant Colony Counts TA-100 S9-
quantitativeResult: 26.7

compound: CC(C)(C)c1ccc(O)c(C(=O)Nc2cc(C(=O)O)ccc2Cl)c1 [Compound 600494]
observable: Mean Revertant Colony Counts TA-100 S9-
quantitativeResult: 25.0

compound: CC(C)(C)c1ccc(O)c(C(=O)Nc2ccc(C(=O)O)cc2C(F)(F)F)c1 [Compound 500873]
observable: Mean Revertant Colony Counts TA-100 S9-
quantitativeResult: 28.3

Now consider a different compound.
Asked: Any idea what Mean Revertant Colony Counts TA-100 S9- was measured for CC(C)(C)c1cc(C(=O)Nc2ccc(C(=O)O)cc2Cl)c(O)c(C(C)(C)C)c1 [Compound 600453] ?
Given back: 33.3

###

System: Salmonella typhimurium TA98
Test: Ames assay, strain TA98
Conditions: 400 ug/Well; with S9
Mean Revertant Colony Counts TA98 SP9+ listing for selected compounds.
Hey, just send me the number, nothing else.

Examples from the recorded data:
moleculeSmiles: CC(C)(C)c1cc(C(=O)Nc2ccc(C(=O)O)cc2Cl)c(O)c(C(C)(C)C)c1
Mean Revertant Colony Counts TA98 SP9+: 7.3

moleculeSmiles: CC(C)(C)c1ccc(O)c(C(=O)Nc2ccc(C(=O)O)cc2C(F)(F)F)c1
Mean Revertant Colony Counts TA98 SP9+: 14.0

moleculeSmiles: CC(C)(C)c1ccc(O)c(C(=O)Nc2ccc(C(=O)O)cc2Cl)c1
Mean Revertant Colony Counts TA98 SP9+: 7.0

Asked: Bench note: what Mean Revertant Colony Counts TA98 SP9+ did CC(C)(C)c1ccc(O)c(C(=O)Nc2cc(C(=O)O)ccc2Cl)c1 show?
Given back: 10.3

###

Tested on: Salmonella typhimurium TA100
Settings: 400 ug/Well; without S9
observable: Mean Revertant Colony Counts TA-100 S9-
Give the figure by itself; no unit, no explanation.

compound: CC(C)(C)c1cc(C(=O)Nc2ccc(C(=O)O)cc2Cl)c(O)c(C(C)(C)C)c1 [Compound 600453]
quantitativeResult: 8.0
//
compound: CC(C)(C)c1ccc(O)c(C(=O)Nc2ccc(C(=O)O)cc2C(F)(F)F)c1 [Compound 500873]
quantitativeResult: 21.0
//
compound: CC(C)(C)c1ccc(O)c(C(=O)Nc2cc(C(=O)O)ccc2Cl)c1 [Compound 600494]
quantitativeResult: 22.3

// switching to the query compound
Asked: Sample CC(C)(C)c1ccc(O)c(C(=O)Nc2ccc(C(=O)O)cc2Cl)c1 [Compound 500200] — what was its Mean Revertant Colony Counts TA-100 S9-?
Given back: 29.7

###

Assay: Pharmacokinetic profile in Sprague Dawley rats (IV and PO)
Type: in vivo
Conditions: rat, plasma, PO 5 mg/kg in PBS, Mean + SD (n = 3), read-out: AUC last (PO)
Procedure: To evaluate the pharmacokinetic profile by oral (PO) and intravenous (IV) administration routes we used 6 to 8-week old Sprague Dawley rats weighing approximately 200-330g (n = 3 per study group). Compounds were administered at 1mg/kg in 5% Cremophor EL and 20% PEG400 in water for IV and 5mg/kg in PBS for PO. […] Plasma samples were stored at -75±15°C prior to analysis and then thawed and analyzed by LC-MS/MS method and pharmacokinetic calculations were performed using WinNolin (Phoenix, version 6.4). […]
observable: AUC(0-t) (ng·h/mL)
API: value field is a number in ng·h/mL; no unit string.

Solved cases below.
compound: CC(C)(C)c1cc(C(=O)Nc2ccc(C(=O)O)cc2Cl)c(O)c(C(C)(C)C)c1 [Compound 600453]
observable: AUC(0-t)
quantitativeResult: 16900
--
compound: CC(C)(C)c1ccc(O)c(C(=O)Nc2ccc(C(=O)O)cc2C(F)(F)F)c1 [Compound 500873]
observable: AUC(0-t)
quantitativeResult: 6430
--
compound: CC(C)(C)c1ccc(O)c(C(=O)Nc2ccc(C(=O)O)cc2Cl)c1 [Compound 500200]
observable: AUC(0-t)
quantitativeResult: 216

Asked: # input compound: CC(C)(C)c1ccc(O)c(C(=O)Nc2cc(C(=O)O)ccc2Cl)c1 [Compound 600494] ; wanted: its AUC(0-t)
Given back: 12400

###

Tested on: Salmonella typhimurium TA98
Test: Ames assay, strain TA98
Settings: 1000 ug/Well; without S9
observable: Mean Revertant Colony Counts TA98 S9-
Write the number on its own, no unit after it.

Example results:
molecule: CC(C)(C)c1cc(C(=O)Nc2ccc(C(=O)O)cc2Cl)c(O)c(C(C)(C)C)c1 [Compound 600453]
quantitativeResult: 3.7
--
molecule: CC(C)(C)c1ccc(O)c(C(=O)Nc2ccc(C(=O)O)cc2C(F)(F)F)c1 [Compound 500873]
quantitativeResult: 14.0
--
molecule: CC(C)(C)c1ccc(O)c(C(=O)Nc2ccc(C(=O)O)cc2Cl)c1 [Compound 500200]
quantitativeResult: 4.3

Continue with the next molecule.
Asked: I would be grateful if you could share the reported Mean Revertant Colony Counts TA98 S9- for CC(C)(C)c1ccc(O)c(C(=O)Nc2cc(C(=O)O)ccc2Cl)c1 [Compound 600494] .
Given back: 10.7

###

Experiment: Pharmacokinetic profile in Sprague Dawley rats (IV and PO)
Assay type: in vivo
Conditions: rat, plasma, IV 1 mg/kg, Mean + SD (n = 3), read-out: MRT Inf_obs (IV)
# MRT inf per entry
Give the value, in units of h, as a plain number.

Examples with answers:
moleculeSmiles: CC(C)(C)c1ccc(O)c(C(=O)Nc2cc(C(=O)O)ccc2Cl)c1
MRT inf (h): 2.39

moleculeSmiles: CC(C)(C)c1cc(C(=O)Nc2ccc(C(=O)O)cc2Cl)c(O)c(C(C)(C)C)c1
MRT inf (h): 3.22

moleculeSmiles: CC(C)(C)c1ccc(O)c(C(=O)Nc2ccc(C(=O)O)cc2Cl)c1
MRT inf (h): 0.26

Turning now to a further molecule:
Asked: Given the entry CC(C)(C)c1ccc(O)c(C(=O)Nc2ccc(C(=O)O)cc2C(F)(F)F)c1 , report its measured MRT inf.
Given back: 1.42

###

Experiment: Pharmacokinetic profile in Sprague Dawley rats (IV and PO)
Assay type: in vivo
Settings: rat, plasma, PO 5 mg/kg in PBS, Mean + SD (n = 3), read-out: AUC Inf (PO)
observable: AUC(0-inf) (ng·h/mL)
State just the number; it will be interpreted in ng·h/mL.

Known results for molecules:
molecule: CC(C)(C)c1cc(C(=O)Nc2ccc(C(=O)O)cc2Cl)c(O)c(C(C)(C)C)c1 [Compound 600453]
unitOfMeasure: ng·h/mL
AUC(0-inf): 17300
--
molecule: CC(C)(C)c1ccc(O)c(C(=O)Nc2ccc(C(=O)O)cc2Cl)c1 [Compound 500200]
unitOfMeasure: ng·h/mL
AUC(0-inf): 220
--
molecule: CC(C)(C)c1ccc(O)c(C(=O)Nc2ccc(C(=O)O)cc2C(F)(F)F)c1 [Compound 500873]
unitOfMeasure: ng·h/mL
AUC(0-inf): 6950

Asked: Data request, read-out AUC(0-inf), for CC(C)(C)c1ccc(O)c(C(=O)Nc2cc(C(=O)O)ccc2Cl)c1 [Compound 600494]
Given back: 13000

Data origin, for the record: paper PMC6201879
